Reported pIC50 values for a set of compounds
- Test system: Bel-7402
- TEST PROTOCOL: Cytotoxicity against human Bel7402 cells assessed as growth inhibition after 72 hrs by MTT assay
- Format: functional, cell-based
- STATED CONDITIONS: Bel-7402, 72 h
Quick note: pIC50 values are minus log10 of concentrations in mol/L.

Some solved entries appear below for comparison.
- ENTRY SMILES: "COc1cc(-c2c(-c3ccc4cc[nH]c4c3)c(=O)c2=O)cc(OC)c1OC"
  RESULT: 5.44
- ENTRY SMILES: "COc1cc(-c2c(-c3ccc4[nH]ccc4c3)c(=O)c2=O)cc(OC)c1OC"
  RESULT: 5.83
- ENTRY SMILES: "COc1ccc(-c2c(-c3cc(OC)c(OC)c(OC)c3)c(=O)c2=O)cc1O"
  RESULT: 6.51
- ENTRY SMILES: "COc1ccc(-c2c(-c3cc(OC)c(OC)c(OC)c3)c(=O)c2=O)cc1N"
  RESULT: 7.85

Next up:
(Q) Requested field: pIC50. Item: COc1ccc(-c2c(-c3cc(OC)c(OC)c(OC)c3)c(=O)c2=O)cc1F
(A) 7.89
